- measuredTarget: P. falciparum apicoplast DNA polymerase (Pf-apPOL) (Plasmodium falciparum, UniProt Q8ILY1)
- Sequence (Q8ILY1 entry or part of it): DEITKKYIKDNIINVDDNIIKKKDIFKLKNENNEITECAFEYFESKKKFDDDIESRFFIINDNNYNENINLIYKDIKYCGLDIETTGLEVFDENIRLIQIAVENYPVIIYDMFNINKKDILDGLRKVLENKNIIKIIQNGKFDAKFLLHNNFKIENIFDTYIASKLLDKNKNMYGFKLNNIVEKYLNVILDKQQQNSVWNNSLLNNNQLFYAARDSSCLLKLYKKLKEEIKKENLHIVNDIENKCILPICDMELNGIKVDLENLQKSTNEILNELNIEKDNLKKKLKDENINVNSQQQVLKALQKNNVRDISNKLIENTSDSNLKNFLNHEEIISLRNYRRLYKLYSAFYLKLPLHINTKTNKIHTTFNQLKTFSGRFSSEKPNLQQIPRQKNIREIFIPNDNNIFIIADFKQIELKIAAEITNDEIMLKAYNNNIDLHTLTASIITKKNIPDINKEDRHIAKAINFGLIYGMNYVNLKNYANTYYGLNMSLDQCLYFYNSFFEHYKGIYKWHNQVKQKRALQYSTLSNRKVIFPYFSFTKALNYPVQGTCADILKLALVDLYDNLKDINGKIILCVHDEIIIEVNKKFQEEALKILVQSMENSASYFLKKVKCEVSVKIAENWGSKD
- assaySummary: Fluorescence-based high-throughput DNA polymerase assay (molecular beacon), primary screen and dose-response
- Assay type: biochemical
- experimentalConditions: DRC-1; 90'; conc 2.5
Provide the recorded % inhibition Apol 90' for the entries that follow.
Quick reminder: number only, in %, skip the unit.

Exercise: Could you tell me which % inhibition Apol 90' is on file for O=c1nc(/C=C/c2ccc(Br)cc2)oc2ccccc12 ?
Solution: -3.77

Exercise: Query (molecule): O=C1Nc2ccc(I)cc2C1=Cc1cc(Br)c(O)c(Br)c1 ; field requested: % inhibition Apol 90'
Solution: -5.207

Exercise: Form field: reported % inhibition Apol 90' of Cc1cc(C)c2c(c1)C1C=CCC1C(c1ccc(C(=O)O)cc1)N2 (centres unmarked)
Solution: 14.3309

Exercise: % inhibition Apol 90' for C=CCOc1c(Br)cc(Br)cc1/C=C1\SC(=N)NC1=O ?
Solution: 2.139

Exercise: Fill in the blank: the reported % inhibition Apol 90' of Cc1ccc(NC(=O)Cn2ccc3c(=O)[nH]ccc32)c(C)c1 is ____.
Solution: 1.128

----------
Exercise: for every item that follows, state its recorded IC50.
- measuredTarget: P. falciparum apicoplast DNA polymerase (Pf-apPOL) (Plasmodium falciparum, UniProt Q8ILY1)
- assaySummary: Fluorescence-based high-throughput DNA polymerase assay (molecular beacon), primary screen and dose-response
- Format: biochemical
- experimentalConditions: supplemental file 2, sheet IC50 nontoxic compounds; Pf-apPOL
Write the number in µM without appending the unit.

Exercise: What value of measured IC50 is listed for N#Cc1c(C2CCCCC2)nc(Sc2ccc(C(F)(F)F)cc2[N+](=O)[O-])[nH]c1=O [Molecule 20] ?
Solution: 8.81

Exercise: Would you mind telling me what IC50 value was observed for Cc1ccc(NC(=O)C2CCN(C(=O)c3cc4ccsc4[nH]3)CC2)c(Br)c1 [Molecule 14] ?
Solution: 6.6

Exercise: Recorded IC50 for CC(C)(C)OC(=O)COc1ccc2cc(-c3ccccc3)c(=O)oc2c1 [Molecule 81] , please?
Solution: 35

Exercise: Form field: reported IC50 of CN(C)C=C1SCc2ccccc2C1=O [Molecule 77]
Solution: 23.7

Exercise: Form field: reported IC50 of COc1ccc(NC(=O)Cn2ccc3c(=O)[nH]ccc32)cc1 [Molecule 13]
Solution: 7.09

Exercise: What IC50 value was documented for this compound, COc1ccc(C)cc1NC(=O)Cn1ccc2c(=O)[nH]ccc21 [Molecule 15] ?
Solution: 7.23

Exercise: Consider the compound shown here: CCCCC(=O)N1CCc2c(nc3cc(-c4ccccc4Cl)[nH]n3c2=O)C1 [Molecule 37] What is its recorded IC50?
Solution: 10.4

Exercise: What does the record list as IC50 for O=C1Nc2ccc(I)cc2C1=Cc1cc(Br)c(O)c(Br)c1 [Molecule 27] ?
Solution: 15.6

Exercise: So what does the record say about IC50 for O=C1c2ccccc2C(=O)N1Oc1ccc([N+](=O)[O-])c([N+](=O)[O-])c1 [Molecule 66] ?
Solution: 37

Exercise: Which IC50 reading was recorded for the compound COc1ccc(-c2cc3nc4c(c(=O)n3[nH]2)CCN(C(=O)CCc2ccccc2)C4)cc1 [Molecule 17] ?
Solution: 7.1

Exercise: Recorded IC50 for O=C(O)c1ccc(-c2nc3cc(-c4ccc5nc(-c6ccc(C(=O)O)cc6)[nH]c5c4)ccc3[nH]2)cc1 [Molecule 1] , please?
Solution: 5.92

Exercise: Which IC50 reading was recorded for the compound Cc1ccccc1C(=O)N1CCc2c(nc3cc(-c4ccccc4)[nH]n3c2=O)C1 [Molecule 41] ?
Solution: 12.4

Exercise: Any idea what IC50 was measured for CC(C)(C)c1cc(C(=O)C(C#N)=NNc2cccc(Cl)c2)no1 [Molecule 98] ?
Solution: 8.45

Exercise: For the compound shown here, O=C(Cn1ccc2c(=O)[nH]ccc21)Nc1cccc(Cl)c1 [Molecule 23] , give the reported IC50.
Solution: 9.11

Exercise: Query: IC50; subject: Cc1ccsc1Cn1c(C)ccc1C [Molecule 70]
Solution: 31.6

Exercise: Form field: reported IC50 of OC(C#Cc1ccccc1)c1ccco1 (stereo not drawn) [Molecule 95]
Solution: 7.4

Exercise: Find the recorded IC50 belonging to CCOc1nc2cccc(C(=O)OC(C)OC(=O)OC3CCCCC3)c2n1Cc1ccc(-c2ccccc2-c2nnn[nH]2)cc1 (stereo not drawn) [Molecule 94] and report it.
Solution: 7.66

Exercise: Reported IC50 for Cc1nc2c(oc3nc(-c4ccoc4)c4c(c32)CC(C)(C)OC4)c(-c2ccccc2)c1C(=O)O [Molecule 93] : what is it?
Solution: 6.29

----------
- measuredTarget: P. falciparum apicoplast DNA polymerase (Pf-apPOL) (Plasmodium falciparum)
- assaySummary: Fluorescence-based high-throughput DNA polymerase assay (molecular beacon), primary screen and dose-response
- Format: biochemical
- experimentalConditions: DRC-2, 5', concentration 10 (unit not given)
For each entry below, report its % inhibition Apo pol 5' value.
All answers are understood in %, so give the number only.

Exercise: // returns reported % inhibition Apo pol 5' for input O=c1cc(CN2CCCCC2)c2cc3c(cc2o1)OCO3 [Molecule 56, O=c1cc(CN2CCCCC2)c2c(o1)cc1c(c2)OCO1]
Solution: 21

Exercise: What value of measured % inhibition Apo pol 5' is listed for O=C1N/C(=N/c2ccccc2Cl)S/C1=C/c1ccc([N+](=O)[O-])o1 [KU0054524] ?
Solution: 42

Exercise: I am curious: what % inhibition Apo pol 5' value has been reported for O=C(Cn1ccc2c(=O)[nH]ccc21)Nc1ccc(Cl)cc1 [Molecule 36, O=C(Cn1ccc2c1cc[nH]c2=O)Nc1ccc(cc1)Cl] ?
Solution: 44

Exercise: For COc1cc(NC(=O)c2ccccc2)c(OC)cc1NC(=O)Cc1cccs1 [KU0032113] , what is its reported % inhibition Apo pol 5'?
Solution: 38

Exercise: # % inhibition Apo pol 5' lookup, item Nc1c(S(=O)(=O)O)cc(Nc2ccccc2)c2c1C(=O)c1ccccc1C2=O [KU0045407]
Solution: 39

Exercise: # get_value(readout='% inhibition Apo pol 5'', item= O=[N+]([O-])/C=C/c1ccc(-c2ccc(Br)cc2)o1 [Molecule 31, O=N(=O)/C=C/c1ccc(o1)c1ccc(cc1)Br] )
Solution: 31

Exercise: Returns the measured % inhibition Apo pol 5' for the input compound. Input: Cc1cccc(CC(=O)N2CCc3c(nc4cc(-c5ccccc5)[nH]n4c3=O)C2)c1 [Molecule 12]
Solution: 44

----------
- measuredTarget: P. falciparum apicoplast DNA polymerase (Pf-apPOL) (Plasmodium falciparum, UniProt Q8ILY1)
- assaySummary: Fluorescence-based high-throughput DNA polymerase assay (molecular beacon), primary screen and dose-response
- Format: biochemical
- experimentalConditions: DRC-2; 40'; concentration 5
parameterMeasured: % inhibition Apol 40' (%)
# value in %; strip the unit string

Exercise: Which % inhibition Apol 40' is reported for this molecule? C=CCOc1c(Br)cc(Br)cc1/C=C1\SC(=N)NC1=O [KU0051640]
Solution: 7

Exercise: Reported % inhibition Apol 40', molecule Cc1cccc2c(C(=O)NC(C)C)cc(N(C)C)nc12 [Molecule 47, CC(NC(=O)c1cc(nc2c1cccc2C)N(C)C)C] : ____
Solution: 14

Exercise: Field request: % inhibition Apol 40' | item: Cc1ccc(-n2nnc(C(=O)O)c2-c2ccccn2)c(F)c1 [Molecule 54, Cc1ccc(c(c1)F)n1nnc(c1c1ccccn1)C(=O)O]
Solution: 10

Exercise: Which % inhibition Apol 40' value belongs to CCCCC(=O)N1CCc2c(nc3cc(-c4ccccc4Cl)[nH]n3c2=O)C1 [Molecule 37] ?
Solution: 15

Exercise: Quick one: % inhibition Apol 40' for O=C1Nc2ccc(I)cc2C1=Cc1cc(Br)c(O)c(Br)c1 [Molecule 27] ?
Solution: 11

Exercise: Looking for the measured % inhibition Apol 40' of O=C(NCC1CCN(C2CCCC2)CC1)C(=O)NC1CCCC1 [KU0199596] , can you help?
Solution: -3

Exercise: Item O=C(Cn1ccc2c(=O)[nH]ccc21)Nc1cccc(Cl)c1 [Molecule 23, O=C(Cn1ccc2c1cc[nH]c2=O)Nc1cccc(c1)Cl] has what recorded % inhibition Apol 40'?
Solution: 35

Exercise: Which value of % inhibition Apol 40' has been reported for CCN1C(=O)C(=Cc2cccc(OC)c2O)SC1=S [Molecule 78, CCN1C(=S)SC(=Cc2cccc(c2O)OC)C1=O] in the records?
Solution: -11

Exercise: Consider the molecule COc1ccc(-c2cc(=O)c3cc(O)ccc3o2)cc1OC [KU0193655] and give its measured % inhibition Apol 40'.
Solution: 3.64

Exercise: What does the record list as % inhibition Apol 40' for COc1ccc(C=C2Oc3c(ccc4c3CN(c3ccc5c(c3)OCO5)CO4)C2=O)cc1OC [KU0199426] ?
Solution: -2.71

Exercise: Tell me the measured % inhibition Apol 40' of CC(=O)Nc1cc(C(=O)c2cccs2)nn(-c2ccc(Cl)cc2)c1=O [KU0267905] , please.
Solution: 7

Exercise: Give its % inhibition Apol 40' value. Item: CC(=O)Nc1cc(C(=O)NC(C)C)c2ccc(C)nc2c1 [KU0206312]
Solution: 13

Exercise: Give its % inhibition Apol 40' value. Item: CN(C)S(=O)(=O)Oc1ccc(-c2noc(-c3ccc(Oc4cc(Cl)cc(Cl)c4)o3)n2)cc1 [KU0263859]
Solution: 16

Exercise: Return reported % inhibition Apol 40'; argument: CC(NC(=O)Cc1cc(=O)[nH]c(SCc2cccc(Cl)c2)n1)c1ccccc1 (centres unmarked) [Molecule 67]
Solution: 0.92

Exercise: Quick check: % inhibition Apol 40' of Cc1cc(C)cc(-n2nc3c(c2NC(=O)c2ccco2)CSC3)c1 [KU0055926] ?
Solution: 24

Exercise: Using the record for O=C1C(=Cc2ccccc2O)Oc2ccc(O)cc21 [KU0196475] , report its % inhibition Apol 40'.
Solution: -7.41

Exercise: # query: % inhibition Apol 40' of entry CCOc1cccc2cc(C(=O)Nc3nnc(-c4ccno4)o3)oc12 [Molecule 28, CCOc1cccc2c1oc(c2)C(=O)Nc1nnc(o1)c1ccno1]
Solution: 24

Exercise: Entry O=C(Nc1cccc(C(=O)Nc2ccc(S(=O)(=O)[O-])c3cc(S(=O)(=O)[O-])cc(S(=O)(=O)[O-])c23)c1)Nc1cccc(C(=O)Nc2ccc(S(=O)(=O)[O-])c3cc(S(=O)(=O)[O-])cc(S(=O)(=O)[O-])c23)c1.[Na+].[Na+].[Na+].[Na+].[Na+].[Na+] [Molecule 39] has what % inhibition Apol 40'?
Solution: 4.26

Exercise: Quick one: % inhibition Apol 40' for COc1cc(NC(=O)c2ccccc2)c(OC)cc1NC(=O)Cc1cccs1 [KU0032113] ?
Solution: 28

Exercise: Value lookup for % inhibition Apol 40'; key = Cn1nc(C(=O)N2CCc3c(nc4cc(-c5ccccc5)[nH]n4c3=O)C2)c2ccccc21 [Molecule 18]
Solution: 23

Exercise: Record request: % inhibition Apol 40' value, item Cc1cc(C)c(O)c(/N=C/c2cc([N+](=O)[O-])cc(Br)c2O)c1 [KU0046272]
Solution: 4.73

Exercise: Any idea what its % inhibition Apol 40' is? The molecule is Cc1ccccc1C(=O)N1CCc2c(nc3cc(-c4ccccc4)[nH]n3c2=O)C1 [Molecule 41]
Solution: 5.58

Exercise: Field request: % inhibition Apol 40' | item: COc1ccc(CNC(=O)Cn2nc3c(c2NC(=O)Cc2cccs2)CSC3)cc1 [Molecule 55]
Solution: -4.6

Exercise: Field request: % inhibition Apol 40' | item: COCCN(CCOC)Cc1c(O)ccc2c1OC(=Cc1cc(Br)ccc1OC)C2=O [KU0198471]
Solution: 6

Exercise: Item Cc1nc(C)c2c(n1)N(CC1CCCCC1)C(=O)CC2 [KU0218606] has what recorded % inhibition Apol 40'?
Solution: 30

Exercise: Consider the molecule shown here: N#Cc1c(C2CCCCC2)nc(Sc2ccc(C(F)(F)F)cc2[N+](=O)[O-])[nH]c1=O [Molecule 20] What is its recorded % inhibition Apol 40'?
Solution: 16

Exercise: Name the recorded % inhibition Apol 40' for O=C(O)C(=O)Nc1nc(-c2ccc3c(c2)OCCO3)cs1 [Molecule 82, OC(=O)C(=O)Nc1scc(n1)c1ccc2c(c1)OCCO2] .
Solution: 15

Exercise: Data request, read-out % inhibition Apol 40', for Cc1ccc2c(C(=O)NCCc3cccnc3)cc(NC(=O)C(C)C)cc2n1 [KU0206096]
Solution: 5.58

Exercise: Suppose we examine the molecule COc1ccc(-c2cc3nc4c(c(=O)n3[nH]2)CCN(C(=O)CCc2ccccc2)C4)cc1 [Molecule 17] ; what % inhibition Apol 40' value has been reported?
Solution: 14

Exercise: Which % inhibition Apol 40' is listed for COc1ccccc1CC(=O)N1CCc2c(nc3cc(-c4ccccc4Cl)[nH]n3c2=O)C1 [Molecule 49] ?
Solution: 20

Exercise: Looking for the measured % inhibition Apol 40' of CC(C)(C)c1cc(C(=O)C(C#N)=NNc2cccc(Cl)c2)no1 [Molecule 98] , can you help?
Solution: 24

Exercise: Given Cc1cccc(CC(=O)N2CCc3c(nc4cc(-c5ccccc5)[nH]n4c3=O)C2)c1 [Molecule 12] , state its recorded % inhibition Apol 40'.
Solution: 25
